Test system: BJ human healthy fibroblast cells
assayRemarks: WST-1 cytotoxicity assay in BJ cells
Type: cell-based
cond: Homo sapiens, BJ, 48 h, read-out: IC50 according to WST-1 results
measuredParameter: IC50 (mM)
Answers are plain numbers, in mM.

Query: Any idea what IC50 came out for `O=NN(CCCl)C(=O)NCCCl` on BJ human healthy fibroblast cells?
Reply: 0.0814

Moving on to the next molecule.
Query: Any idea what IC50 came out for O=P1(N(CCCl)CCCl)NCCCO1 (centres unmarked) [Cyclophosphamide, cyclophosphamide] on BJ human healthy fibroblast cells?
Reply: 3.97

###

Tested on: BJ human healthy fibroblast cells
assayRemarks: WST-1 cytotoxicity assay in BJ cells
Type: cell-based
cond: read-out: IC50 according to WST-1 results; BJ cells, 48 h incubation
measuredParameter: pIC50
One number for each entry, as −log10 of the molar value.

Query: Fill in: pIC50 of NC(=O)[C@H](CCCN=C(N)CCl)NC(=O)c1ccccc1 [Cl-amidine, chlorine-amidine] is ___
Reply: 3.26
